Measured Maximum Activity compared to TSH accompanies every entry in the list below.
measured_on: human TSHR (Homo sapiens)
Construct: expressed in transfected cells
Sequence (P16473 21-764): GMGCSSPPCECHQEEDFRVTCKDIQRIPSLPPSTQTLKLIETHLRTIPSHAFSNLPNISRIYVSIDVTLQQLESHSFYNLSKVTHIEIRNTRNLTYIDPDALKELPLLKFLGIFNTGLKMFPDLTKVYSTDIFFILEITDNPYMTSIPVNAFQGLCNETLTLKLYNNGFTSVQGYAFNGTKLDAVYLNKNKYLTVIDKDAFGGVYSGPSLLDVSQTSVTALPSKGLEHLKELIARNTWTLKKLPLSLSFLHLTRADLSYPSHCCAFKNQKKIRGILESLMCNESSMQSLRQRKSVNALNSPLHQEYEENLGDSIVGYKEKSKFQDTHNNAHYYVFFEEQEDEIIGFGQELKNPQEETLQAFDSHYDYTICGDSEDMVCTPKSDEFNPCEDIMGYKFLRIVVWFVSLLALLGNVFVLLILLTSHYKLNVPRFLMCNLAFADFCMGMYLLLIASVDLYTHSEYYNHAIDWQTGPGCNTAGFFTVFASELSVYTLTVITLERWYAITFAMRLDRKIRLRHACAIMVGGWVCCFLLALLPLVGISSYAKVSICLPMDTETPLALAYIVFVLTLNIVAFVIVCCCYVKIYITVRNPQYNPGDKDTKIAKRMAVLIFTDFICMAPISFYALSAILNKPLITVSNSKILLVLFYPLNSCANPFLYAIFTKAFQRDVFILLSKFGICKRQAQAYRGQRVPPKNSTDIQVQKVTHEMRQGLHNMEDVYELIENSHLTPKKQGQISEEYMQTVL
assay_procedure: Homogeneous Time Resolved Fluorescence (HTRF) cAMP assay, TSHR cell line
Assay type: cell-based
setup_conditions: 100% activity = response of 30 mU/ml TSH, 0% = DMSO control; in %
Description: Generation of Stable Cell-Lines Expressing TSHR, LHCGR or FSHR. cDNA for human TSHR was amplified by PCR from hTSHR-pSVL (1) and inserted into the pcDNA3.1(−)/hygromycin vector using restriction sites XhoI and BamHI. cDNA for human LHCGR was amplified by PCR from hLHR-pGS5 (2) and was inserted into the pcDNA3.1(+)/hygromycin vector using restriction sites BamHI and XhoI. […] Homogeneous Time Resolved Fluorescence (HTRF) cAMP Assay. […]
experimental_readout: Maximum Activity compared to TSH

>>> print(df.to_string())
                                   compound  number
0  COc1ccc(C2Nc3ccccc3C(=O)N2Cc2ccco2)cc1COc1ccc(NC(C)=O)cc1 (centres unmarked) [Structure 59]  226.43
1  COc1ccc(C2Nc3ccccc3C(=O)N2Cc2ccccc2Cl)cc1COc1ccc(NC(C)=O)cc1 (centres unmarked) [Structure 273]   11.00
2  COc1ccc(CN(Cc2ccccc2)C(=O)Nc2ccccc2)cc1COc1ccc(NC(C)=O)cc1 [Structure 135]   48.07
3  COc1ccc(CN(Cc2ccccc2)C(=O)c2ccccc2)cc1COc1ccc(NC(C)=O)cc1 [Structure 98]  140.53
4  O=C(c1ccccc1O)N(Cc1ccccc1)Cc1cccs1 [Structure 287]   30.00
5  COc1ccc(C(=O)N(Cc2ccccc2)Cc2ccccc2)c(O)c1 [Structure 114]   51.15
6  COc1ccc([C@H]2[C@H](c3ccccc3)C(=O)N2Cc2ccccc2)cc1COc1ccc(NC(C)=O)cc1 [Structure 90]  110.89
7  COc1ccc(C2Nc3ccccc3C(=O)N2Cc2ccco2)cc1COc1ccc(NC(C)=O)cc1 (centres unmarked) [Structure 20]  156.28

----------
measured_on: human TSHR (Homo sapiens)
Construct: expressed in transfected cells
assay_procedure: Homogeneous Time Resolved Fluorescence (HTRF) cAMP assay, TSHR cell line
Format: cell-based
setup_conditions: HTRF cAMP, TSHR cell line, 30 minute incubation; read-out: AC50
experimental_readout: AC50 (µM)

In [3]: df
Out[3]:
                                   molecule  number
0  COc1ccc(C2Nc3ccccc3C(=O)N2Cc2cccc(C(F)(F)F)c2)cc1COc1ccc(NC(C)=O)cc1 (stereo not shown) [Structure 27]    4.47
1  COc1ccc(C2Nc3ccc(Cl)cc3C(=O)N2Cc2ccccc2)cc1COc1ccc(NC(C)=O)cc1 (stereo not shown) [Structure 123]    14.1
2  COc1ccc(C2Nc3ccccc3C(=O)N2Cc2cccc(Cl)c2)cc1COc1ccc(NC(C)=O)cc1 (stereo not shown) [Structure 12]    3.98
3  O=C(c1ccccc1O)N(Cc1ccccc1)Cc1cccs1 [Structure 142]      20
4  CCC(=O)Nc1ccc(OCc2cc(C3Nc4ccccc4C(=O)N3Cc3ccccc3)ccc2OC)cc1 (stereo not shown) [Structure 275]    7.94
5  COc1ccc(C2Oc3ccc(NC(C)=O)cc3C(=O)N2Cc2cccc(Cl)c2)cc1COc1ccc(NC(C)=O)cc1 (stereo not shown) [Structure 83]    7.08
6  COc1ccc(C2Nc3ccc(Cl)cc3C(=O)N2Cc2ccccc2)cc1COc1ccc(NC(C)=O)cc1 (stereo not shown) [Structure 119]    14.1
